Ref: patent US20190263905A1

Target: T1, Antigen CD66c (CEACAM6; Sino Biological, Inc.) (UniProt P40199 35-320)
T1 construct: Bought antigen coated on the ELISA plate; construct not described; also called CD66c antigen; CECACAM6
T1 sequence (looked up): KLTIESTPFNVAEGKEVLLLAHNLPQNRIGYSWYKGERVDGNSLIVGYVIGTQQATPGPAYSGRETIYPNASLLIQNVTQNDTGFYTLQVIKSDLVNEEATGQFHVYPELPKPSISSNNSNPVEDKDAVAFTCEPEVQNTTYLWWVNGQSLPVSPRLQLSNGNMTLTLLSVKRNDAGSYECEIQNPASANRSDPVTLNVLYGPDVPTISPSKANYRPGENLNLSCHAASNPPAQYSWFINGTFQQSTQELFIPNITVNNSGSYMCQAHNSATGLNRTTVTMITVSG
Assay: ELISA, coated CEACAM6 100 ng/well, antibody 0.51 ng/ml
Measurement Kind: OD 450 nm (OD)
Give the value, in units of OD, as a plain number.

recombinant humanized anti-CD66c antibody Protein ID 3058 (Vk8 + VH11) (antibody, human IgG1, V domains shown, also called hu 3058; #86) VH: QVQLVQSGAEVKKPGASVKISCKASGYSFTDYTMHWVKQAPGQNLEWIGLINPFGGSTSYAQKFKGRVTMTRDTSTNTAYMELSRLRSDDTAVYYCVRGDPVRHYYALAYWGQGTLVTVSS VL: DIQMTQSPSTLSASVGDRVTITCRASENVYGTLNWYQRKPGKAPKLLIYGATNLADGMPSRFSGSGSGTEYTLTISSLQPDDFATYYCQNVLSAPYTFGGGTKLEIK :: 0.38

Now let's try a different one.
input: Would you kindly share the measured OD 450 nm for recombinant humanized anti-CD66c antibody Protein ID 3019 (Vk7 + VH10) (antibody, human IgG1, V domains shown, also called hu 3019; #51) VH: QVQLVQSGAEVKKPGASVKVSCKASGYSFTDYTMNWVKQAPGQNLEWIGLINPFHGGTVSNQRFKVKATMTVDVSTNTAYMELSRLRSDDTAVYYCVRGDPVRHYYALAYWGQGTLVTVSS VL: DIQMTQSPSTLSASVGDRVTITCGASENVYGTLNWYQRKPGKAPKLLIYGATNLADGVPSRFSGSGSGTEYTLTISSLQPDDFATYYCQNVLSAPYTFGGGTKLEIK ?
output: 0.8
